Target: ETS1 (UniProt P14921)
Sequence: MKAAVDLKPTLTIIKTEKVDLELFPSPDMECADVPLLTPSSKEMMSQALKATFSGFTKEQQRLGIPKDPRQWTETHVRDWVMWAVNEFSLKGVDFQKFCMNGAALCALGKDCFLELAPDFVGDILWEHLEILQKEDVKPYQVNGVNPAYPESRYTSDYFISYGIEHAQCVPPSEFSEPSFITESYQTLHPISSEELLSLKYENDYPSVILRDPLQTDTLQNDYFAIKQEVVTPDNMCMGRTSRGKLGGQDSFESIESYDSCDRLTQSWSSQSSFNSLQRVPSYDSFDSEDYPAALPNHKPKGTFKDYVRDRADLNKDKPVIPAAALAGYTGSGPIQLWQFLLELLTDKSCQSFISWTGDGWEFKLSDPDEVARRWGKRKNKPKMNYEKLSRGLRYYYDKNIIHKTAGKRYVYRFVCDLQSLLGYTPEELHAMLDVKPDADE
Test: ETS1 binding intensity (PBM fluorescence), ETS1 alone (arbitrary fluorescence units); higher = stronger binding
Conditions: ETS1 concentration 1 nM; RUNX1 concentration 0 nM
Mark met for reported ETS1 binding intensity of 800 or greater; mark not met for anything smaller.

CTGCGTTTCCTCTGAGTTTTGCATGTTGAGGTTGGA | not met
ACCTGAGCAGGAAGTAGCTGAGGTCGCGGTGCAGCA | met
GGCCAACGAGAGCGCTTCCGGCCGCAGCCACGGCGG | met

Ask: Decide: ETS1 binding intensity of CACTTCCTATCGCTACATAACAAATTACCACAGACT >= 800?
Result: not met

Ask: Could you please find out whether TGGAGTGGAGGAAGTGGTGTTACCACAGCTCAGAGG has ETS1 binding intensity that meets 800 or exceeds it?
Result: met

====

Biological target: ETS1 (UniProt P14921)
Sequence: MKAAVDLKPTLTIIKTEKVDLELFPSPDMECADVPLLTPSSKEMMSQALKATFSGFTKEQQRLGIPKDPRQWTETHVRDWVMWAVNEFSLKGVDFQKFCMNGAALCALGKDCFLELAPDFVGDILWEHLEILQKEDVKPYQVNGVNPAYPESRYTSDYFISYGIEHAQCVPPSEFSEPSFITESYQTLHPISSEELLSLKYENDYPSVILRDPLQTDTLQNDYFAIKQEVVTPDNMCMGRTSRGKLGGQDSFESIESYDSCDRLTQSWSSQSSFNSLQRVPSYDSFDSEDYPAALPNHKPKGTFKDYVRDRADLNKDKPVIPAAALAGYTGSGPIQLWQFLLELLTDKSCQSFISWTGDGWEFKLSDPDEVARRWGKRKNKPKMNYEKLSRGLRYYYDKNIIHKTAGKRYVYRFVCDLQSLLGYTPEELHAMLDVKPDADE
Assay: ETS1 binding intensity (PBM fluorescence), ETS1 alone (arbitrary fluorescence units); higher = stronger binding
Conditions: ETS1 concentration 1 nM; RUNX1 concentration 0 nM
Measured property: ETS1 binding intensity
The answer should be a number; do not append a unit.

Ask: Fill in ETS1 binding intensity for ATGCAGAAGCTACAGGAAGAAGCCGCAGGCCAAGCT tested with ETS1 (UniProt P14921).
Result: 844

Ask: Lab note: ETS1 (UniProt P14921) assay, enter ETS1 binding intensity for GCCCACCCGCTTCCGGTTGTGGGCCCCGCCCGCCGA here
Result: 5540

Ask: Specify the recorded ETS1 binding intensity for CCCCTTCCCGTTCTCCGAAAGTGCGCGGGTTGGAGC , system: ETS1 (UniProt P14921).
Result: 489

Ask: Jot down ETS1 binding intensity (ETS1 (UniProt P14921)) of CCGGTCCGCTCGCCGGAAATGCGGGCTCTCCTGCCG .
Result: 8400

====

target: RUNX1 (UniProt Q01196); assay: RUNX1 binding intensity (PBM fluorescence), RUNX1 alone (arbitrary fluorescence units); higher = stronger binding; details: RUNX1 concentration 2 nM; ETS1 concentration 0 nM
Sequence (Q01196 whole entry): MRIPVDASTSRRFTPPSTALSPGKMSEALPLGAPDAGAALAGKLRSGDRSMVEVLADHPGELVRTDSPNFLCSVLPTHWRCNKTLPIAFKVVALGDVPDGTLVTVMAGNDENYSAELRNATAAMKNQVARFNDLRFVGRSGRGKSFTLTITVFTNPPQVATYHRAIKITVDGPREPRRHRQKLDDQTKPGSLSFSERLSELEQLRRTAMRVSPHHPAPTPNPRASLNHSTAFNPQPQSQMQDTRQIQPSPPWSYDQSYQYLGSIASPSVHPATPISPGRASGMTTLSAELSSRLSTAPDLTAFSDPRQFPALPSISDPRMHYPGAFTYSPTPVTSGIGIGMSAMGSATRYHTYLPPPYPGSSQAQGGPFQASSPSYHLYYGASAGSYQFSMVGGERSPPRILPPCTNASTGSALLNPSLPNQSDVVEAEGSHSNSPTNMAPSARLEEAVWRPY
Measured property: RUNX1 binding intensity
No unit in the answer, only the number.

// solved cases for RUNX1 binding intensity follow
AAAGCAAACAGGAAGTGCTGTGGTAACAAGGCCCCA | 728
CTGGGGATGTGTGACACTCAGAGAAACCACAAGGTG | 1010
ACACCTCAGGAAGTGGCAGAGACCACAACAAGTCAG | 816
GGCGCTAGGCTTCCGGATCGCGGTGGGCGGAGTTCA | 678
GCCGCTGGGTAGGCGGAAGTAGCCGCAGGCATGGCA | 760

Ask: Let me know recorded RUNX1 binding intensity for TGCATGTGCAGCAGAGGAAACCACAAGTTATTCCCT , thanks.
Result: 1110

====

target: RUNX1 (UniProt Q01196); test: RUNX1 binding intensity (PBM fluorescence), RUNX1 alone (arbitrary fluorescence units); higher = stronger binding; conditions: RUNX1 concentration 2 nM; ETS1 concentration 0 nM
Measured property: RUNX1 binding intensity
// no unit, no text: just the number

Consider the reported RUNX1 binding intensity for these sequences:
TTCTGCTACATCCTGCCCACTCCCTGTGGCTTCCAC | 1380
GGCCGGCTTCCGGGGCGGGTGGAAAGGAGCCACAAG | 750
TGAGGGGCTCGCCGGGAAATGTGGTTTAGCGGCCCT | 832
CATACAGGATGCTGGGGTATGTAAAACAAACCACGG | 775
TCTGTTCTTCCTTTTCCTGTGCGGTGTGCCCCAAAC | 1530

Ask: Specify RUNX1 binding intensity for GCACTGTAGGCAGGATGTGGGCAGGGGAAACTCAGG , system RUNX1 (UniProt Q01196).
Result: 827

====

target: RUNX1 (UniProt Q01196); test: RUNX1 binding intensity (PBM fluorescence), RUNX1 alone (arbitrary fluorescence units); higher = stronger binding; settings: RUNX1 concentration 2 nM; ETS1 concentration 0 nM
Measured RUNX1 binding intensity, listed per entry.
// no unit string in output, number only

Here are 8 sequences together with their reported answers.
CAGACAGGAGGCGGATGTGGGTGGCGCAGAATGAGC | 688
CTTTGTTGAAAAGGATGTGGTCATCTGATCTTGCTG | 864
CTGCCCAGCCACTTCCTGCCCAACCACAGACTGACA | 1420
AGACGGGACCGGAAGCCGGGCCGCAGGCGGCCGGGC | 811
ACTACAGGAGGAAACTACAGCCTAAACCACATGCAA | 975
AGGCCGCCTACAGGATGTTGGAAACCACAGGGCCCG | 765
GTGGTCGGGAGGGGAAGTGAGGCGGTTACCTCGGCG | 790
GAGCATAGCCTAGCAGGATGTGGTTAAATACATTTG | 747

Ask: State RUNX1 binding intensity on RUNX1 (UniProt Q01196). Entry: TTTGTAAGAGGAGGAAGTGGTTTGTAAGAGGAGAAA
Result: 835

Ask: Tell me RUNX1 binding intensity of AGAACAAAACAGGAAATAGTGGTTTGCAAAAATATA when tested on RUNX1 (UniProt Q01196).
Result: 736

====

molecular target: RUNX1 (UniProt Q01196); assay: RUNX1 binding intensity (PBM fluorescence) in presence of ETS1, normalised to RUNX1-only experiment (arbitrary fluorescence units); higher = stronger binding; settings: RUNX1 concentration 2 nM; ETS1 concentration 25 nM
Recorded measurements of RUNX1 binding intensity, one per entry
Number, no unit, nothing else.

Past entries and their recorded results:
GCTCATTTCCTGGCCGCTCCTGGGCTTCGCGGTGAG | 1730
TGGAAGCGGCTTCCGGGGTGAATGCGGTTGGATCGT | 3030
GTAAACTAGCTCTTCCGGTCTGTGGCCCTCACAGGA | 1500
GAGGTGCCGGAAGCCAGTAGGTGGTTTTGGGTGCTA | 1180
TTGGTCAGCCTGCTTCCGGCTGTGGCTTCAGTTAGT | 1420

Next item in the queue.
Ask: Using known records, supply RUNX1 binding intensity for AACTTCCGAGGGAACTAACTGGTTTTAACCACATTG
Result: 1190

====

target: RUNX1 (UniProt Q01196); assay: RUNX1 binding intensity (PBM fluorescence) in presence of ETS1, normalised to RUNX1-only experiment (arbitrary fluorescence units); higher = stronger binding; conditions: RUNX1 concentration 2 nM; ETS1 concentration 25 nM
Measured property: RUNX1 binding intensity
Lab note: write the figure by itself, no unit.

Some solved cases for reference:
GCCCACCCGCTTCCGGTTGTGGGCCCCGCCCGCCGA | 7040
TGCAAAAAAACAGGAAACACCCAGCCGCAAATTATA | 1230
GGGCGGAAGTGCGTCACTATGTCCGACCCGCAGTGC | 1010
GAGCCACCGGAAACGGAGCTGCGGCCGCGCCCCGCC | 1650
GACCAATGTAAACAAGGATGTGGGTTCTCCGGCCAC | 1190

Ask: Report the value of RUNX1 binding intensity obtained on RUNX1 (UniProt Q01196) for GTGCTGAGCAGCTTCCCGTCTGCGGTGAAGACAGCC .
Result: 1930

Ask: # assay system RUNX1 (UniProt Q01196): give RUNX1 binding intensity of AAAAGGCACCAGGAAATGACAGCACCGCAGCACGCC
Result: 871

Ask: Enter RUNX1 binding intensity (test system RUNX1 (UniProt Q01196)) for CTTGTGAAATGTATCCTGTGGTTGCCGGCTGAAGTG
Result: 1380

Ask: Give RUNX1 binding intensity for CCTCCTCCAGACCATCCTGGAAACCACTGCCGTTCT tested on RUNX1 (UniProt Q01196).
Result: 1360

Ask: Give RUNX1 binding intensity only, for CAGGCTGCTTCCGGCGCGCGGCAGAGCGGTCAGAGC , using RUNX1 (UniProt Q01196) data.
Result: 1700

Ask: GET RUNX1 binding intensity where system = RUNX1 (UniProt Q01196) and item = CGGAGGCGGCCGGAAGTAGCGCTGCGGTTGGCAGCT
Result: 6060

Ask: Fill in RUNX1 binding intensity for GCTAAGAGCAGGAAATGATCTGGGAACCACCATCAC tested with RUNX1 (UniProt Q01196).
Result: 918

Ask: Fetch value of RUNX1 binding intensity on RUNX1 (UniProt Q01196) for ACCTGCACTTCCTCCTCCCTAGACCGCACCCTTCTC .
Result: 4300

Ask: Send back RUNX1 (UniProt Q01196) RUNX1 binding intensity of TGCCTCACCTCACATCCGTTTGTGGCTGCCGAGTGC only.
Result: 1880

Ask: State RUNX1 binding intensity on RUNX1 (UniProt Q01196). Entry: GACAGGAAGTGACCTCAATTTCCCCGGCCACAGAAA
Result: 1770

Ask: State the measured RUNX1 binding intensity (RUNX1 (UniProt Q01196)) of AGTAGGATGGGAGGAAGTGGTTTGTAAGAGGAGGAC
Result: 1480

Ask: // fetch RUNX1 binding intensity for TGAGGAGAGCGAGGAAGTGGTTTTCTCTTCGCACAG ; system: RUNX1 (UniProt Q01196)
Result: 948

Ask: Under RUNX1 (UniProt Q01196), report RUNX1 binding intensity for TATTCTTCCTGTACTTAAGCTTGCTGGTGTGGTTTC
Result: 1560

Ask: Lab note: RUNX1 (UniProt Q01196) assay, enter RUNX1 binding intensity for GTTGAAATTGAGCTTCCGTTGGTGGTTAACCCTCTG here
Result: 1310

Ask: // output RUNX1 binding intensity; input CCCCTACTTCCCTTTTTGCTGGGCCGCAGTTTCGGT ; system RUNX1 (UniProt Q01196)
Result: 2220

Ask: Specify RUNX1 binding intensity for GTTGAGTTCCGGGGGAGGTTGAGTTCCTGCGGTCAA , system RUNX1 (UniProt Q01196).
Result: 2450

Ask: # assay system RUNX1 (UniProt Q01196): give RUNX1 binding intensity of GTGGCGGGGCGGAAGTTCACATGTGTGGTATGTAGA
Result: 1430

Ask: Please indicate recorded RUNX1 binding intensity of CCTGCGGATCACGGAAGTGGCTGCGGTCGGCGCCAT measured with RUNX1 (UniProt Q01196).
Result: 4890

Ask: Quote RUNX1 binding intensity with test system RUNX1 (UniProt Q01196) for TGATAAAACACAGGATGTGGTAAGGGAGCTGGCCAA
Result: 4550

Ask: Provide measured RUNX1 binding intensity on RUNX1 (UniProt Q01196) for GGGCAGCAGCAGACCGGAAACCACAGCCGACTAAGA please.
Result: 3330

Ask: Give RUNX1 (UniProt Q01196) RUNX1 binding intensity for the following sequence: AGTCTCGTTTCCTGTGCGCTGTGGCCACCTGGCAGC
Result: 1790

Ask: Please respond with reported RUNX1 binding intensity (system RUNX1 (UniProt Q01196)) for GCGCACTTCCGGGCTGGTGAACGCGGTGACGTCACC .
Result: 1720

Ask: Under RUNX1 (UniProt Q01196): report RUNX1 binding intensity of CTGCTGCTTTTAGGATGTGGTTTTATTATTGTCGGG .
Result: 1340
